Target: Muscarinic M2 (Rattus norvegicus, UniProt P10980)
Sequence (P10980 whole entry): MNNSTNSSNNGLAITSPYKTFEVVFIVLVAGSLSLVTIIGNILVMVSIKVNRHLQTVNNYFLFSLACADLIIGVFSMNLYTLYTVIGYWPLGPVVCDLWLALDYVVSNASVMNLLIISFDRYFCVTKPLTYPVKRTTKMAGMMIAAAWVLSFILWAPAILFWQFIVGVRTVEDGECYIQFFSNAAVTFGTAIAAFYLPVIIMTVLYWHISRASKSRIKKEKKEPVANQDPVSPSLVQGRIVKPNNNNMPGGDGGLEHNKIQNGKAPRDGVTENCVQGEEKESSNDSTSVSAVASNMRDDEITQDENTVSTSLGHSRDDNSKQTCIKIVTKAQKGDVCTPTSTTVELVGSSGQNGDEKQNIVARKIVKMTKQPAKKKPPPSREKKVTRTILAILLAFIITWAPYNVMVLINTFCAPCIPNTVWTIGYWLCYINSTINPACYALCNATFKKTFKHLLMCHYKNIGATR
Experiment: biochemical
Format: binding
PROPERTY_NAME: IC50 (µM)
Report the figure in µM without appending any unit label.

Ask: Give the measured IC50 of "COc1ccc(CN(CCN(C)C)c2ccccn2)cc1" .
Reply: 3.5

---

Biological target: GABAB (Rattus norvegicus, UniProt Q9Z0U4)
Construct: membranar receptors of various rats organs; from tissue; host or cells: rat cerebellum
Sequence (Q9Z0U4 17-960 limits assumed): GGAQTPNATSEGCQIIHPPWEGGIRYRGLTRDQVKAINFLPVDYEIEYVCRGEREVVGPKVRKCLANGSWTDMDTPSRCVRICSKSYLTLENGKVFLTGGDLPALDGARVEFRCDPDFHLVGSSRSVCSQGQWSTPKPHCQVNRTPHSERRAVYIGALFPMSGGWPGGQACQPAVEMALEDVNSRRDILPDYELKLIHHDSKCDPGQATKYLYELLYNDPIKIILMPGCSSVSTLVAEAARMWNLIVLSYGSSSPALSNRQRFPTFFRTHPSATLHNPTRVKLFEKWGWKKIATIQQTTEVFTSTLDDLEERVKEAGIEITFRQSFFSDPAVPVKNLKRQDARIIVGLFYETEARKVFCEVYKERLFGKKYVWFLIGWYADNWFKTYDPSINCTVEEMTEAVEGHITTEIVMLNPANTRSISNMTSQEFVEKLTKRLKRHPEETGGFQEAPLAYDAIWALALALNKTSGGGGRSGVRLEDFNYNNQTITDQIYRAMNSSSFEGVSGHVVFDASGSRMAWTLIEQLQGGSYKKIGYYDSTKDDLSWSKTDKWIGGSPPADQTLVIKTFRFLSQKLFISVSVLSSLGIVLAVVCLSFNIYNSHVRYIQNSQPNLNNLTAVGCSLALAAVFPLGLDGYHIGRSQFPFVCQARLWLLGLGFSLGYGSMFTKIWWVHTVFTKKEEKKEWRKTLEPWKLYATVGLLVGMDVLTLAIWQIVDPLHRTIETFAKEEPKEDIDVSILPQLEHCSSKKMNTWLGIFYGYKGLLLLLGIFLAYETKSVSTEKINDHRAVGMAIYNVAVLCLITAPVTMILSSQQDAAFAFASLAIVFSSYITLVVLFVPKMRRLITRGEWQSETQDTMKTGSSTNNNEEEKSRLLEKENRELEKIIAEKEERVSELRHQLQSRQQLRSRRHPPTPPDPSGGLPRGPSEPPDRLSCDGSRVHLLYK
Sequence (O88871 41-940 partner): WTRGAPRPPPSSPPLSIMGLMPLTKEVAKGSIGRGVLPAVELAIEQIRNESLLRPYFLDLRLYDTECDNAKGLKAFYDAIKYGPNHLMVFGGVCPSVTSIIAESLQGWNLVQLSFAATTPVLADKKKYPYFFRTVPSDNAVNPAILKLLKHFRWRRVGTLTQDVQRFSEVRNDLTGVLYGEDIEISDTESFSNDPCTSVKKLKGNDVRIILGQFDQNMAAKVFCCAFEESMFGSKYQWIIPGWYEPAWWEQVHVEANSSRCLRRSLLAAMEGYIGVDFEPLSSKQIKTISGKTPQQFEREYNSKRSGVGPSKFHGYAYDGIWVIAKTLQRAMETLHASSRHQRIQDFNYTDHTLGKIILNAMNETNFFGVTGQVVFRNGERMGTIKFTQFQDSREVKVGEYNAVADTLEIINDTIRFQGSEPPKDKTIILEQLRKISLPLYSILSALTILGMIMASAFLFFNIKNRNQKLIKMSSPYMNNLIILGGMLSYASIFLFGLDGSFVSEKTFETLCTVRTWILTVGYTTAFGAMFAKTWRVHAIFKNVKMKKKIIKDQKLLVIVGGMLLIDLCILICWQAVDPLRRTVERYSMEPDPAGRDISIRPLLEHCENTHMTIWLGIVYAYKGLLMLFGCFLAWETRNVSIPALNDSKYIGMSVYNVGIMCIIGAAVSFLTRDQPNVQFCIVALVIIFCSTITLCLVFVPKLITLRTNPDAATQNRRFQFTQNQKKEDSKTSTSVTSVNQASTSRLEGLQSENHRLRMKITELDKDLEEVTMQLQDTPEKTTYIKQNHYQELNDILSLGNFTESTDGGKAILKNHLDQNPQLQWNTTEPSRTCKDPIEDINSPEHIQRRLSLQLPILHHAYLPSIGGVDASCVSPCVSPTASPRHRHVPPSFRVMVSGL
Experiment: Affinity for GABAB ([3H]Baclofen)
Format: binding
PROPERTY_NAME: IC50

Ask: Record lookup: for GABAB (Rattus norvegicus, UniProt Q9Z0U4), what IC50 belongs to CC(C)(C)c1ccc(C(O)CCCN2CCC(C(O)(c3ccccc3)c3ccccc3)CC2)cc1 (stereo not shown) ?
Reply: > 10 µM

---

Target: Adenosine A1 (Rattus norvegicus, UniProt P25099)
Construct: membranar receptors of various rats organs; from tissue; host or cells: rat cortex
Sequence (P25099 whole entry): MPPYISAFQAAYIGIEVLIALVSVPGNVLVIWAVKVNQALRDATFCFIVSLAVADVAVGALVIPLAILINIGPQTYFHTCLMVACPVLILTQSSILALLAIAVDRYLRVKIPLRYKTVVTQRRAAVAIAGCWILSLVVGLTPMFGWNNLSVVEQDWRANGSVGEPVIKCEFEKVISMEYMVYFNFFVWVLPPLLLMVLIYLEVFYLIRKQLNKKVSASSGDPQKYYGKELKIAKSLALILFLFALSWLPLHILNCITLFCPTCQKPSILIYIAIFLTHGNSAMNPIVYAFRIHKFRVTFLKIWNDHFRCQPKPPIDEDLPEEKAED
Assay: Affinity for adenosine A1 ([3H]cyclohexyladenosine)
Type: binding
PROPERTY_NAME: IC50

Ask: Give the measured IC50 of CC(C)(C)c1ccc(C(O)CCCN2CCC(C(O)(c3ccccc3)c3ccccc3)CC2)cc1 (stereo not shown) .
Reply: > 10 µM

---

Target: Peripheral sites to the benzodiazepines (Rattus norvegicus)
Construct: membranar receptors of various rats organs; from tissue; host or cells: rat cortex
Test: Affinity for peripheral sites to benzodiazepines ([3H]PK 11195)
Type: binding
Conditions: rat cortex; 1 nM [3H]PK 11195, pH 7.4; read-out: CI50 (the source's name)
PROPERTY_NAME: IC50

# COMPOUND, IC50
data = [
    ("COc1ccc(CN(CCN(C)C)c2ccccn2)cc1 [Mepyramine]", "> 10 µM"),
]

Query compound follows.
Ask: Give the measured IC50 of CC(C)(C)c1ccc(C(O)CCCN2CCN(c3nc4ccccc4n3Cc3ccc(F)cc3)CC2)cc1 (centres unmarked) [example III] .
Reply: > 10 µM

---

Target: H1 receptors of rat cortexes (Rattus norvegicus)
Sequence (P31390 whole entry): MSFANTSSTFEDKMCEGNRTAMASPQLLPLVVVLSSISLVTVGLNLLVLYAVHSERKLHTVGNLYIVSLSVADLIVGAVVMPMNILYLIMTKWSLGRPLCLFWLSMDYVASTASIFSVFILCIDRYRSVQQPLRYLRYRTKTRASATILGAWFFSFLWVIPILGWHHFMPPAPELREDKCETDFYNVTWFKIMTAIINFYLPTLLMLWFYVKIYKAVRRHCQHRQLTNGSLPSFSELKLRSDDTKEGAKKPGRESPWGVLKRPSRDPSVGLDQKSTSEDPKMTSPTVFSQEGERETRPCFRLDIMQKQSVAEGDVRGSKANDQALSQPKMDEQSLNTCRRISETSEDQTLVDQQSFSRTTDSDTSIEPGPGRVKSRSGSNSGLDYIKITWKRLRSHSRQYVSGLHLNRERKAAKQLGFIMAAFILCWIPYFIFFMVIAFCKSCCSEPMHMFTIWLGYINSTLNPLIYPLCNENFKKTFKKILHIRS
PROPERTY_NAME: pIC50
Here pIC50 is given on a logarithmic scale as minus log10 of the concentration in mol/L.

Ask: Record lookup: for H1 receptors of rat cortexes (Rattus norvegicus), what pIC50 belongs to CC(C)(C)c1ccc(C(O)CCCN2CCN(c3nc4ccccc4n3Cc3ccc(F)cc3)CC2)cc1 (stereo not shown) [example III] ?
Reply: 5.96
